- System: yellow fever mosquito (Aedes aegypti)
- test_name: whole plant or invertebrate
- Type: in vivo
- condition_notes: 48 h, larval mortality visually assessed after 2 days, read-out: mortality in comparison with untreated controls
Reported values of mortality at 800 ppm for individual entries

| compound | mortality at 800 ppm |
| --- | --- |
| CC(C)c1ccccc1N1/C(=N/N=C/c2ccc3c(ccc4c3ncn4-c3ccc(OC(F)(F)F)cc3)n2)SCC1(C)O (centres unmarked) | ≥ 75% |

`CC(C)c1ccccc1N1CCS/C1=N/N=C/c1ccc2c(ccc3c2ncn3-c2ccc(OC(F)(F)F)cc2)n1` on yellow fever mosquito (Aedes aegypti) gives mortality at 800 ppm = ≥ 75%

`CC(C)c1ccccc1N1C(=O)CS/C1=N\N=C\c1ccc2c(ccc3c2ncn3-c2ccc(OC(F)(F)F)cc2)n1` on yellow fever mosquito (Aedes aegypti) gives mortality at 800 ppm = ≥ 75%

`Cc1cccc(C)c1N1C(=O)CS/C1=N\N=C\c1cc2ccc3c(ncn3-c3ccc(OC(F)(F)F)cc3)c2cn1` on yellow fever mosquito (Aedes aegypti) gives mortality at 800 ppm = ≥ 75%

`Cc1cccc(C)c1N1CCCS/C1=N/N=C/c1ccc2c(ccc3c2ncn3-c2ccc(OC(F)(F)F)cc2)n1` on yellow fever mosquito (Aedes aegypti) gives mortality at 800 ppm = ≥ 75%

`Cc1cccc(C)c1NC(=S)N/N=C/c1ccc2c(ccc3c2ncn3-c2ccc(OC(F)(F)F)cc2)n1` on yellow fever mosquito (Aedes aegypti) gives mortality at 800 ppm = ≥ 75%

`Cc1cccc(C)c1N1C(=O)CS/C1=N\N=C\c1cnc2c(ccc3c2ncn3-c2ccc(OC(F)(F)F)cc2)c1` on yellow fever mosquito (Aedes aegypti) gives mortality at 800 ppm = ≥ 75%

`CC(C)c1ccccc1N1CCCS/C1=N/N=C/c1ccc2c(ccc3c2ncn3-c2ccc(OC(F)(F)F)cc2)n1` on yellow fever mosquito (Aedes aegypti) gives mortality at 800 ppm = ≥ 75%
